test_details: Duration of antibiotic blood levels in mice after single oral dose (agar disc-plate assay, Sarcina lutea)
Format: in vivo
particulars: mouse, 120 min post administration, single oral dose 20 mg./kg.
readout_label: concentration at 2 h
A complete answer gives the number and then names the unit.

{"columns": ["smiles_code", "concentration at 2 h"],
 "data": [
  ["Cn1nnnc1SCC1=C(C(=O)O)N2C(=O)[C@@H](NC(=O)[C@H](N)c3ccc(O)cc3)[C@H]2SC1", "5360 ng/mL"]
]}

Next molecule, concentration at 2 h to be filled in.
# input Find the recorded concentration at 2 h belonging to Cc1nnc(SCC2=C(C(=O)O)N3C(=O)[C@@H](NC(=O)[C@H](N)c4ccc(O)cc4)[C@H]3SC2)s1 and report it.
# output 5200 ng/mL

* * *

test_details: Duration of antibiotic blood levels in mice after single oral dose (agar disc-plate assay, Sarcina lutea)
Assay type: in vivo
particulars: mouse, 30 min post administration, single oral dose 20 mg./kg.
readout_label: concentration at 0.5 h (ng/mL)
Answers are plain numbers, in ng/mL.

Worked examples follow.
{"columns": ["molecule", "concentration at 0.5 h / ng/mL"],
 "data": [
  ["Cc1nnc(SCC2=C(C(=O)O)N3C(=O)C(NC(=O)C(N)c4ccccc4)C3SC2)s1 (stereo not shown) [compound 4, reference compound]", 3990],
  ["Cn1nnnc1SCC1=C(C(=O)O)N2C(=O)[C@@H](NC(=O)[C@H](N)c3ccc(O)cc3)[C@H]2SC1 [compound 1]", 8550]
]}

I have 2 molecules here; please give me concentration at 0.5 h for each one.
1. Cc1nnc(SCC2=C(C(=O)O)N3C(=O)[C@@H](NC(=O)[C@H](N)c4ccc(O)cc4)[C@H]3SC2)s1 [compound 3]
2. Cn1nnnc1SCC1=C(C(=O)O)N2C(=O)C(NC(=O)C(N)c3ccccc3)C2SC1 (stereo not shown) [compound 2, reference compound]

# output
1. 13900
2. 1170

* * *

test_details: physchem
particulars: 6% dmf, pKa (third)
readout_label: pKa
One number for each entry.

# input Find the recorded pKa belonging to Cc1nnc(SCC2=C(C(=O)O)N3C(=O)[C@@H](NC(=O)[C@H](N)c4ccc(O)cc4)[C@H]3SC2)s1 [compound 3] and report it.
# output 12.2

* * *

Kindly state concentration at 1.5 h for each of the entries shown.
test_details: Duration of antibiotic blood levels in mice after single oral dose (agar disc-plate assay, Sarcina lutea)
Assay type: in vivo
particulars: mouse, 90 min post administration, single oral dose 20 mg./kg.
Experimental: The determinations were carried out in groups of 3 or 4 mice as indicated in the table and the results averaged. At the indicated time intervals post administration, blood samples were withdrawn at the orbital sinus from each mouse in the test group and assayed for the concentration of antibiotic. […]
One number for each entry, in ng/mL.

Worked examples follow.
{"columns": ["compound", "concentration at 1.5 h / ng/mL"],
 "data": [
  ["Cc1nnc(SCC2=C(C(=O)O)N3C(=O)C(NC(=O)C(N)c4ccccc4)C3SC2)s1 (stereo not shown) [compound 4, reference compound]", 1610],
  ["Cn1nnnc1SCC1=C(C(=O)O)N2C(=O)[C@@H](NC(=O)[C@H](N)c3ccc(O)cc3)[C@H]2SC1", 6940],
  ["Cc1nnc(SCC2=C(C(=O)O)N3C(=O)[C@@H](NC(=O)[C@H](N)c4ccc(O)cc4)[C@H]3SC2)s1", 9800]
]}

Next compound, concentration at 1.5 h to be filled in.
# input Find the recorded concentration at 1.5 h belonging to Cn1nnnc1SCC1=C(C(=O)O)N2C(=O)C(NC(=O)C(N)c3ccccc3)C2SC1 (stereo not shown) [compound 2, reference compound] and report it.
# output 1090

Each recorded value in this set is attributed to patent US3946003A.
